Measured minimal area per molecule by item
assay: Surface-pressure area isotherms; format: physicochemical; details: constant pressure of 20 mN/m
readout.kind: minimal area per molecule

cpd.smiles	readout.kind	meas.value
CCCCCCCCCCCCC/C=C/[C@@H](O)[C@H](CO)NC(=O)CCC	minimal area per molecule	~46 Å^2
CCCCCCCCCCCCC/C=C/[C@@H](O)[C@H](CO)NC(=O)CCCCCCCCCCCCCCC	minimal area per molecule	~37.5 Å^2
CCCCCCCCCCCCC/C=C/[C@@H](O)[C@H](CO)NC(=O)CCCCCCC	minimal area per molecule	~45.5 Å^2

###

test: Partition in the two phases of the Dole system; assay type: physicochemical
Measured Kp (heptane rich/isopropanol and water rich partition coefficient) by item
readout.kind: Kp (heptane rich/isopropanol and water rich partition coefficient)

cpd.smiles	meas.value
CCCCCCCCCCCCC/C=C/[C@@H](O)[C@H](CO)NC(=O)CCCCCCCCCCCCCCC	8.21
CCCCCCCCCCCCC/C=C/[C@@H](O)[C@H](CO)NC(=O)CCCCC	3.17
CCCCCCCCCCCCC/C=C/[C@@H](O)[C@H](CO)NC(C)=O	0.54
CCCCCCCCCCCCC/C=C/[C@@H](O)[C@H](CO)NC(=O)CCCCCCC	5.25
CCCCCCCCCCCCC/C=C/[C@@H](O)[C@H](CO)NC(=O)CCC	0.92
